Origin of measurements: patent EP4596548A1

# Experimental target: Nur77 (Homo sapiens, UniProt P22736)
# Sequence (P22736 360-595 limits assumed): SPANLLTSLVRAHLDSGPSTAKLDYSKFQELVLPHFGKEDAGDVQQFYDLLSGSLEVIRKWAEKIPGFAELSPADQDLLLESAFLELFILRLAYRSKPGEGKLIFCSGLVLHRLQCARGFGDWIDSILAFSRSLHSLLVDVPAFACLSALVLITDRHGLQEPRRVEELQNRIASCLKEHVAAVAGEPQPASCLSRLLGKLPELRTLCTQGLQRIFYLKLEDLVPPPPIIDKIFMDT
# Assay overview: Gal4 hybrid reporter gene assay, selectivity profiling (Nur77)
Experimental endpoint: pEC50
# pEC50 is unitless: minus log10 of the molar concentration; print number only

### Prompt What measured pEC50 goes with Cc1nc2c(Cl)cccn2c1NC(=O)c1ccc(-c2ccc(N(C)C)cc2)o1 [Compound 36] ?
### Response 6.48

---

# Experimental target: Nurr1 (Homo sapiens, UniProt P43354)
# Assay overview: Gal4-Nurr1 hybrid reporter gene assay in HEK293T cells
# Assay type: cell-based
# Design: expressed in transfected cells; host or cells: HEK293T
# Condition: maximum effect vs. 0.1% DMSO control; mean±SD; n≥3
Listed here are compounds together with their documented max. activation.

Cc1nc2c(Cl)cccn2c1NC(=O)c1ccc(-c2ccc(Cl)cc2)o1	1.8±0.1 fold
Nc1c(-c2ccc(C(F)(F)F)cc2)nc2c(Cl)cccn12	< 1.2-fold act.

### Prompt What measured max. activation goes with Cc1ccc(-c2ccc(C(=O)Nc3c(C)nc4c(Cl)cccn34)o2)cc1 ?
### Response 2.0±0.2 fold

### Prompt What measured max. activation goes with Cc1ccc(-c2nc3c(Cl)cccn3c2N)cc1 ?
### Response 2.0±0.2 fold

### Prompt What measured max. activation goes with Nc1c(-c2ccccc2)nc2c(Cl)cccn12 ?
### Response 1.4±0.1 fold

### Prompt What measured max. activation goes with Nc1c(-c2ccc(Cl)cc2)nc2c(Cl)cccn12 ?
### Response 1.7±0.2 fold

### Prompt What measured max. activation goes with Cc1cccc(-c2nc3c(Cl)cccn3c2N)c1 ?
### Response < 1.2-fold act.

### Prompt What measured max. activation goes with CC(C)c1nc2c(Cl)cccn2c1N ?
### Response < 1.2 fold

### Prompt What measured max. activation goes with Cc1ccc(-c2nc3c(Cl)cccn3c2N)cc1C ?
### Response 1.6±0.1 fold

### Prompt What measured max. activation goes with Nc1c(-c2cccc(Cl)c2)nc2c(Cl)cccn12 ?
### Response 1.7±0.1 fold

---

As a worked illustration, we turn to pKd data collected for Nurr1 LBD (Homo sapiens).
# pKd is unitless: minus log10 of the molar concentration; print number only

Cc1nc2c(Cl)cccn2c1NC(=O)c1ccc(-c2ccc(Cl)cc2)o1	6.15

Could you now look at the following compound, please?
### Prompt What measured pKd goes with Cc1nc2c(Cl)cccn2c1N ?
### Response 5.57

---

# Experimental target: Nurr1-RXR heterodimer (DR5) (Homo sapiens, UniProt P43354)
# Construct: The full length human nuclear receptor Nurr1 (pcDNA3.1-hNurr1-NE; Addgene plasmid #102363); NE (suffix in the plasmid name); host or cells: HEK293T
# Sequence (P43354 whole entry): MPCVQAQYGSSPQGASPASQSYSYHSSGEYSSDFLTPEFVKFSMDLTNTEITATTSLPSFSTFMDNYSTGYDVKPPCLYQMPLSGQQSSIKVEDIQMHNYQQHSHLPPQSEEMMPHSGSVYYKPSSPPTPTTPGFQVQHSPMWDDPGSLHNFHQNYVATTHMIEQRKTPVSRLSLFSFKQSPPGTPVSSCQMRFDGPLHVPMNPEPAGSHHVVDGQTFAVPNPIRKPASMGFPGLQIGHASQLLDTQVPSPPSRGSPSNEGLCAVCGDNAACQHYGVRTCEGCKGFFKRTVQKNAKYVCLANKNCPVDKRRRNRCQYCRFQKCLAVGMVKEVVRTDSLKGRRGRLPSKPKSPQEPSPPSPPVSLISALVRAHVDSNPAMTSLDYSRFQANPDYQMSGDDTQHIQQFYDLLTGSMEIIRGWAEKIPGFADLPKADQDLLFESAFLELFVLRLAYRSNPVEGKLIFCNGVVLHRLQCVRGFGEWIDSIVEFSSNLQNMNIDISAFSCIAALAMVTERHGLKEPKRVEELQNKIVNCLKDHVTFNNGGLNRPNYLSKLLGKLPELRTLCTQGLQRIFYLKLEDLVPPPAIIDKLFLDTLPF
# Sequence (P19793 whole entry partner): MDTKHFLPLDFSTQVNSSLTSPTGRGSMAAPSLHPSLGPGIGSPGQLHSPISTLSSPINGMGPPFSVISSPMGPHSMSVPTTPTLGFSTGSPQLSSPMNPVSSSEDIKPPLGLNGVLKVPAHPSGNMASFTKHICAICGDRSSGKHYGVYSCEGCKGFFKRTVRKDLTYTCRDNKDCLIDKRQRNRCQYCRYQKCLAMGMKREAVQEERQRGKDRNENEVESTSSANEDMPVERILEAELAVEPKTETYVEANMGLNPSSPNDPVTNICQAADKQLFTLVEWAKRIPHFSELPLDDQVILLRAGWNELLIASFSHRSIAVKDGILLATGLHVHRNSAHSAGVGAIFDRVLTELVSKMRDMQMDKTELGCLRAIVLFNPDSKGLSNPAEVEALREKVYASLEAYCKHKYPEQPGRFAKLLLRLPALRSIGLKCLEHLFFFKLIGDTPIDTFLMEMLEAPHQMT
# Assay overview: Full-length Nurr1 reporter gene assay, response element DR5 with RXRα
# Format: cell-based
# Condition: without bexarotene; read-out: EC50(DR5)
Experimental endpoint: pEC50
# pEC50 is unitless: minus log10 of the molar concentration; print number only

### Prompt What measured pEC50 goes with Cc1nc2c(Cl)cccn2c1NC(=O)c1ccc(-c2ccc(N(C)C)cc2)o1 ?
### Response 6.78

---

# Experimental target: Nurr1 (Homo sapiens)
# Assay overview: Gal4-Nurr1 hybrid reporter gene assay in HEK293T cells
# Assay type: cell-based
# Parameters: expressed in transfected cells; host or cells: HEK293T
# Condition: result in words, at 100 µM
# Protocol: Hybrid reporter gene assays. Nurr1 modulation was determined in a Gal4 hybrid reporter gene assay in HEK293T cells (German Collection of Microorganisms and Cell Culture GmbH, DSMZ) using pFR-Luc (Stratagene, La Jolla, CA, USA; reporter), pRL-SV40 (Promega, Madison, WI, USA; internal control) and pFA-CMV-hNurr1-LBD^14, coding for the hinge region and ligand binding domain of the canonical isoform of human Nurr1. […]
Experimental endpoint: EC50(Nurr1) (max. activation)

Nc1cnc2ccccn12 [Compound 10]	inactive (100 µM)
Nc1cnc2c(Cl)cccn12 [Compound 12, 3-Amino-8-chloroimidazo[1,2-a]pyridine]	inactive (100 µM)
Cc1nc2ccccn2c1N [Compound 13]	inactive (100 µM)
Nc1c(-c2ccccc2Cl)nc2c(Cl)cccn12 [Compound 19]	inactive (100 µM)

### Prompt What measured EC50(Nurr1) (max. activation) goes with CC(C)c1nc2c(Cl)cccn2c1N [Compound 14] ?
### Response inactive

### Prompt What measured EC50(Nurr1) (max. activation) goes with Cc1nc2cc(Cl)ccn2c1N [Compound 9] ?
### Response inactive (100 µM)

### Prompt What measured EC50(Nurr1) (max. activation) goes with Nc1c(-c2ccoc2)nc2c(Cl)cccn12 [Compound 16] ?
### Response inactive

### Prompt What measured EC50(Nurr1) (max. activation) goes with Clc1cccn2ccnc12 [Compound 11] ?
### Response inactive (100 µM)
